assay: chemical genetic growth profiling, strain panel (AID 1159580);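 further: tested at 20 µM; growth read once vehicle control cultures reached saturation at 30 °C; 1 = growth at the plate median or of vehicle wells; lower values mean less growth of the strain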; conditions: S. cerevisiae deletion strains, growth OD, locus YBR136W, strain MEC1, stronger effect = lower value
About 2,000 (36%) of roughly 5,500 compounds were called active. About 18% were inconclusive and are not listed. This is one part of the list.
parameter measured: normalized growth
Just the number, please.

Oc1ccc(N=Nc2ccccn2)c(O)c1 0.0929
Cc1nn(Cc2nnc(SCc3cccc(C(F)(F)F)c3)o2)c(C)c1Br 0.97
O=C(CCn1c(=O)oc2ccccc21)Sc1ccc(C(F)(F)F)cc1 0.941
COc1ccc(OC)c(-c2ccn[nH]2)c1OCc1ccccc1 0.987
COc1cc(CC/C(C)=N/O)ccc1OCc1ccc(Cl)cc1Cl 0.977
COc1cc(CC/C(C)=N\O)ccc1OCc1ccc(Cl)c(Cl)c1 0.96

Q) Which normalized growth value belongs to CSC(=NNc1ccccc1)NC(=O)c1c(Cl)cccc1Cl ?
A) 0.972

Q) Which normalized growth value belongs to O=C(Nc1ccc(F)c(Cl)c1)c1ccccc1O ?
A) 0.899

Q) Which normalized growth value belongs to O=C1/C(=C/c2ccc(C(F)(F)F)cc2)COc2ccccc21 ?
A) 0.924

Q) Which normalized growth value belongs to CC(C)(C)C(=O)/C(C#N)=C/c1c(Cl)cccc1Cl ?
A) 0.722

Q) Which normalized growth value belongs to O=C(CCn1c(=O)oc2ccccc21)Sc1ccc(Cl)cc1Cl ?
A) 0.913

Q) Which normalized growth value belongs to CS(=O)(=O)/C(C#N)=C/c1ccccc1OCc1c(Cl)cccc1Cl ?
A) 0.958
